Sourced from patent US7511041B2

Quick list: melting point per entry.

Reference set (8 entries):
1) COc1cccc2c1N=C(NC(=O)c1cnccc1C)N1CCN=C21.Cl [Example 2-120] | 220 °C (dec.)
2) Cc1ccc(C(=O)NC2=Nc3ccccc3C3=NCCN23)cc1 [Example 2-218] | 185 to 186 °C
3) O/C(=C\C1=Nc2ccccc2C2=NCCN12)c1cccc(Cl)c1 [Example 1-171] | 224 to 227 °C
4) COc1c(OCCN2CCCCC2)ccc2c1N=C(/C=C(\O)c1cccnc1)N1CCN=C21 [Example 1-20] | 162 to 163 °C
5) Cl.O/C(=C\C1=Nc2cc(N3CCOCC3)ccc2C2=NCCN12)c1cncc(O)c1 [Example 1-99] | 312 °C (dec.)
6) CCCC(=O)NC1=Nc2ccccc2C2=NCCN12 [Example 2-328] | 121 to 122 °C
7) O/C(=C\C1=Nc2c(OCCN3CCOCC3)cccc2C2=NCCN12)c1cccnc1 [Example 1-84] | 195 to 196 °C
8) CC(=O)Nc1ccc(C(=O)NC2=Nc3cc(N4CCOCC4)ccc3C3=NCCN23)cc1 [Example 2-15] | 227 °C

Using the record for CC(=O)Oc1cccc2c1N=C(/C=C(\O)c1cccnc1)N1CCN=C21 [Example 1-93] , report its melting point. 225 to 226 °C

###

READOUT LABEL: melting point

Reference set (5 entries):
1. CC(=O)Nc1ccc(C(=O)NC2=Nc3ccccc3C3=NCCN23)cn1 [Example 2-151] | 320 °C (dec.)
2. CSc1ccc(C(=O)NC2=Nc3ccccc3C3=NCCN23)cc1 [Example 2-243] | 169 to 170 °C
3. Cl.O=C(NC1=Nc2cc(N3CCOCC3)ccc2C2=NCCN12)c1ccc2[nH]cnc2c1 [Example 2-11] | 294 °C (dec.)
4. O=C(NC1=Nc2cccc(Cl)c2C2=NCCN12)c1cccs1 [Example 2-358] | 233 °C
5. O/C(=C\C1=Nc2c(OCC3CC3)cccc2C2=NCCN12)c1cccnc1 [Example 1-88] | 203 °C (dec.)

Using the record for COc1cc2c(c(OC)c1C)N=C(/C=C(\O)c1ccc(NC(C)=O)nc1)N1CCN=C21 [Example 1-64] , report its melting point. > 285 °C

Follow-up item: COc1cccc2c1N=C(NC(=O)c1cccnc1Cl)N1CCN=C21.Cl [Example 2-119] 266 °C (dec.)

Follow-up item: COc1cccc2c1N=C(NC(=O)c1cc3cccnc3nc1C(F)(F)F)N1CCN=C21.Cl [Example 2-129] 225 °C (dec.)

###

Quick list: melting point per entry.

Using the record for Cl.NC(=O)C1CN2C(NC(=O)c3cccnc3)=Nc3ccccc3C2=N1 (centres unmarked) [Example 2-365] , report its melting point. 274 °C (dec.)

Follow-up item: Cc1ccc(C(=O)NC2=Nc3ccccc3C3=NCCN23)c(Cl)n1 [Example 2-290] 213 to 214 °C

Follow-up item: CC(C)(C)/C(O)=C/C1=Nc2ccccc2C2=NCCN12 [Example 1-183] 134 to 138 °C

Follow-up item: O/C(=C\C1=Nc2cc(N3CCOCC3)ccc2C2=NCCN12)c1ccc2[nH]cnc2c1 [Example 1-100] 232 °C

###

READOUT LABEL: melting point

1. N#CCOc1ccc2c(c1)C1=NCCN1C(NC(=O)c1cccnc1)=N2 [Example 2-213] | 209 °C
2. O=C(NC1=Nc2ccccc2C2=NCCN12)c1csnn1 [Example 2-307] | 219 °C (dec.)
3. C[C@H]1CN2C(NC(=O)c3cccnc3)=Nc3ccccc3C2=N1.Cl [Example 2-363] | 204 °C (dec.)
4. COc1cc2c(cc1OC)C1=NCCN1C(/C=C(\O)c1ccc(C#N)cc1)=N2 [Example 1-187] | 307 to 308 °C

Using the record for CC(=O)Nc1ccc(/C(O)=C/C2=Nc3c(C)cccc3C3=NCCN23)cn1 [Example 1-77] , report its melting point. > 285 °C
